Biological target: T1, p73 DBD S139F (human, UniProt O15350 115-312, S139F)
T1 sequence: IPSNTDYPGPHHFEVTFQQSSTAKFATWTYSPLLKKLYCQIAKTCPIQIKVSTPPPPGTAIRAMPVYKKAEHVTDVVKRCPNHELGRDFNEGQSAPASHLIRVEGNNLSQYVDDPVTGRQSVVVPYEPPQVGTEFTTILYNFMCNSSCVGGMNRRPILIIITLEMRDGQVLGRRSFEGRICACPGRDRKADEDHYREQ
Test: fluorescence polarization; Hill 1.5 ± 0.2; FP: 50 nM fluorescein-DNA, 0-20000 nM protein, 30 min on ice then room temperature; buffer, salt and pH not stated. Crystals: 0.1 M Tris pH 8.5, 50-125 mM sodium acetate, 20-24% PEG 3350, room temperature
Settings: protein: recombinant; chain copies: 2; label: fluorescein; self-complementary
Reported Metric: Kd (µM)
Answers are plain numbers, in µM.

Incoming: Look at this binder and give its reported Kd. 12mer GGGCA half-site (dsDNA) DNA 1: TGGGCATGCCCA DNA 2: TGGGCATGCCCA
Outgoing: 1.54
